Overview of reported microsomal CLint across a group of compounds:
# MEASUREMENT DESCRIPTION: Intrinsic clearance in mouse liver microsomes in presence of NADPH
# Format: ADME, Microsome
Answer format: numeric, µL/min/mg implied, no suffix.

Here is how some compounds turned out for microsomal CLint.
> print(dat)
                                smiles.data  recorded.result
1  COc1ccc(OC(F)(F)F)cc1Cn1c(C(=O)NCC(C)(C)CO)cc2cc(C#N)ccc21               45
2  O=C(c1ccc(OCCN2CCCCC2)cc1)c1c(-c2ccc(O)cc2)sc2cc(O)ccc12               66

Which microsomal CLint is reported for this compound? Cc1ccc(C(F)(F)F)cc1Cn1c(C(=O)NCCC(C)(C)O)cc2cc(C#N)ccc21 33

meta.source: ChEMBL document CHEMBL1759935
